test: Half life in human liver microsomes at 1 to 3 uM incubated for 20 mins in presence NADPH measured up to 90 mins by LC/MS/MS analysis; assay type: ADME, microsome; details: liver microsomes
Entries and their half-life values follow.
In your response, the unit should come after the numeric value.

>>> result("COc1cc(N2CC[C@@H](Oc3ccc(N4N=C(C(F)(F)F)[C@@H](C)[C@@H]4CC(=O)O)cc3)[C@H](C)C2)c(Cl)cn1")
"1.7 h"

Now consider a different compound.
Give its half-life value. Item: `CCOc1ccc(F)c(N2CC[C@@H](Oc3ccc(N4N=C(C(F)(F)F)[C@@H](C)[C@@H]4CC(=O)O)cc3)[C@H](F)C2)c1`
1.58 h
